Hello, the source for this data is the supplement of paper PMC11246515, in case you need it.

# Assay Procedure: total protein half-life in vivo (active degradation + dilution); higher = more stable protein
# Test Parameters: E. coli NCM3722 delta-clpP delta-lon delta-hslV; growth: N-lim chemostat; doubling time 6 h
Listed below: total protein half-life in vivo values for each entry.
Endpoint Name: total protein half-life in vivo (h)

MDNRGEFLNNVAQALGRPLRLEPQAEDAPLNNYANERLTQLNQQQRCDAFIQFASDVMLTRCELTSEAKAAEAAIRLCKELGDQSVVISGDTRLEELGISERLQQECNAVVWDPAKGAENISQAEQAKVGVVYAEYGLTESGGVVLFSAAERGRSLSLLPEYSLFILRKSTILPRVAQLAEKLHQKAQAGERMPSCINIISGPSSTADIELIKVVGVHGPVKAVYLIIEDC ... 4.84
MKSRAAVAFAPGKPLEIVEIDVAPPKKGEVLIKVTHTGVCHTDAFTLSGDDPEGVFPVVLGHEGAGVVVEVGEGVTSVKPGDHVIPLYTAECGECEFCRSGKTNLCVAVRETQGKGLMPDGTTRFSYNGQPLYHYMGCSTFSEYTVVAEVSLAKINPEANHEHVCLLGCGVTTGIGAVHNTAKVQPGDSVAVFGLGAIGLAVVQGARQAKAGRIIAIDTNPKKFDLARRFGATDCINPNDYDKPIKDVLLDINKWGIDHTFECIGNVNVMRAALESAHRGWGQSVIIGVAVAGQEISTRPFQLVTGRVWKGSAFGGVKGRSQLPGMVEDAMKGDIDLEPFVTHTMSLDEINDAFDLMHEGKSIRTVIRY ... 5.33
MSNITIYHNPACGTSRNTLEMIRNSGTEPTIIHYLETPPTRDELVKLIADMGISVRALLRKNVEPYEELGLAEDKFTDDRLIDFMLQHPILINRPIVVTPLGTRLCRPSEVVLEILPDAQKGAFSKEDGEKVVDEAGKRLK [P0AB96] ... 6.69
